The values you see were collected from paper PMC7355937.

- measurement.target: human recombinant AChE (Homo sapiens, UniProt P22303)
- Construct: purchased Sigma-Aldrich Co. LLC C1682
- Sequence (P22303 32-614): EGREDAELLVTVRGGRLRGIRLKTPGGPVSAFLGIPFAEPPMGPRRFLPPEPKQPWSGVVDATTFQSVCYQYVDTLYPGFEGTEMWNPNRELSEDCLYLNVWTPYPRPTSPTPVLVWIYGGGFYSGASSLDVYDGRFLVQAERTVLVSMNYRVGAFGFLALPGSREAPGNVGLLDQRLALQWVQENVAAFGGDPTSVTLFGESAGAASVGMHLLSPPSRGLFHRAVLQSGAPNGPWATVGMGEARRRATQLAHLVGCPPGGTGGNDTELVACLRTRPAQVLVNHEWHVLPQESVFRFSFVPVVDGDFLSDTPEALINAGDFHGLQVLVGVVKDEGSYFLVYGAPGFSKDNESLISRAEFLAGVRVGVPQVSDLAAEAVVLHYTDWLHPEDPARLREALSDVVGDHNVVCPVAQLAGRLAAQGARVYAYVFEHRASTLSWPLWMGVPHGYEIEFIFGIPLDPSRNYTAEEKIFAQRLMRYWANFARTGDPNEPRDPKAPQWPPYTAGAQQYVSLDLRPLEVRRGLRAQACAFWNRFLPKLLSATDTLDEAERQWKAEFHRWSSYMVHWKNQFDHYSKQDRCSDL
- test.name: biochemical
- settings: five to eight concentrations; read-out: AChE IC50
Please respond with reported IC50 for every item in the list.
Answers are plain numbers, in µM.

Cc1ccc2cc(NC(=O)NCCN3CCCC3)ccc2n1 [Ýmir-10 (15)] :: 115

State recorded IC50 for all listed compounds.
1. O=C(Nc1nc(CN2CCCCC2)cs1)c1cc(O)nc2ccccc12 [Ýmir-16 (21)]
2. CC(=O)c1cccc(NC(=O)c2ccc(CN3CCCCC3)cc2)c1 [Compound 14]
3. Cc1cc(F)ccc1S(=O)(=O)NCc1ccc(CN2CCCC2)cc1 [Ýmir-14 (19)]

1. 7.76
2. 1.1
3. 1.32

For each of the compounds below, state IC50.
1. Cc1nnc2ncc(-c3ccc(C(C)N(C)C)cc3)cn12 (stereo not shown) [Ýmir-2 (7)]
2. O=C(Nc1cccc(CN2CCCCC2)c1)c1ccccc1F [Compound 10]
3. C[C@H]1CCCN(Cc2ccc(NC(=O)CCc3ccc(C#N)cc3)cc2)C1 [Compound 20]
4. CN(C)Cc1ccc(-c2ccc(N(C)C)nc2)nc1 [Compound 6]
5. CC(=O)c1cccc(NC(=O)c2ccc(CN3CCCCCC3)cc2)c1 [Compound 18]
6. Cc1cccc(NC(=O)c2ccc(CN3CCCCCC3)cc2)c1C [Compound 13]

1: 2.58; 2: 11.3; 3: 33.5; 4: 58.5; 5: 17.9; 6: 30.2

====

- measurement.target: human α7 nAChR (Homo sapiens, UniProt P36544)
- Construct: expressed in transfected cells; host or cells: Xenopus laevis oocytes (cRNA injection)
- Sequence (P36544 23-502): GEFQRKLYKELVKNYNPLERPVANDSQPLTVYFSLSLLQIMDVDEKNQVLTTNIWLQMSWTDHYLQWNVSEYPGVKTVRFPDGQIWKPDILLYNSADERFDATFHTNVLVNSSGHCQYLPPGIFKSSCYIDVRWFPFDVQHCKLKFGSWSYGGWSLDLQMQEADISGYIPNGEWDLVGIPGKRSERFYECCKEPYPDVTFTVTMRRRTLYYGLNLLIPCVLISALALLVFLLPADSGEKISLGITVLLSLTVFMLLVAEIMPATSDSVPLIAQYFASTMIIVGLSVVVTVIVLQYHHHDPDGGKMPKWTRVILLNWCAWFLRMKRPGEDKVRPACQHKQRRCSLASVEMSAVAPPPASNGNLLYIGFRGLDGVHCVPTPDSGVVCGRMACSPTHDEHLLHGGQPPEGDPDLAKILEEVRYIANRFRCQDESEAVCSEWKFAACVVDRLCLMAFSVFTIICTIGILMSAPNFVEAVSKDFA
- test.name: α7 nAChR direct activation (agonist test), two-electrode voltage-clamp electrophysiology in Xenopus oocytes
- Type: cell-based
- settings: 200 µM; normalized to 3 mM ACh response; -60 mV; read-out: α7 nAChR %Activation
Could you please report measured activation at 200 µM for the items listed next?
Give bare numbers, in %.

Go through the list and state activation at 200 µM for each entry.
1. C[C@H]1CCCN(Cc2ccc(NC(=O)CCc3ccc(C#N)cc3)cc2)C1 [Compound 20]
2. CC(=O)c1cccc(NC(=O)c2ccc(CN3CCCCCC3)cc2)c1 [Compound 18]
3. O=C(Nc1cccc(CN2CCCC2)c1)C1=Cc2cc(Cl)ccc2OC1 [Compound 16]
4. O[C@@H]1c2ccc(-c3cccnc3)cc2OC[C@H]1N1CCCC1 [Compound 9]

1. 0.3
2. 0.7
3. 1
4. 1

For every listed record, write down its activation at 200 µM.
1. O=C(Nc1nc(CN2CCCCC2)cs1)c1cc(O)nc2ccccc12 [Ýmir-16 (21)]
2. O=C(Nc1cccc(CN2CCCCC2)c1)c1ccccc1F [Compound 10]
3. Cc1cccc(NC(=O)c2ccc(CN3CCCCCC3)cc2)c1C [Compound 13]
4. CC(=O)c1cccc(NC(=O)c2ccc(CN3CCCCC3)cc2)c1 [Compound 14]
5. c1cc(-c2ccc(-c3ccc(CN4CCCC4)cn3)cc2)n[nH]1 [Compound 8]

1: 0.3; 2: 0.3; 3: 0.7; 4: 0.3; 5: 0.3

List reported activation at 200 µM for each of these compounds:
1. CN(C)Cc1ccc(-c2ccc(N(C)C)nc2)nc1 [Compound 6]
2. Cc1cc(F)ccc1S(=O)(=O)NCc1ccc(CN2CCCC2)cc1 [Ýmir-14 (19)]
3. O=c1[nH]c2ccccc2c(=O)n1-c1ccc(CN2CCCC2)cc1 [Compound 12]
4. O=C(Nc1ccc(CN2CCCCC2)cc1)c1ccc(Cl)cc1 [Compound 11]

1: 0.4; 2: 0.7; 3: 0.3; 4: 0.7

====

- measurement.target: human α7 nAChR (Homo sapiens, UniProt P36544)
- Construct: expressed in transfected cells; host or cells: Xenopus laevis oocytes (cRNA injection)
- test.name: α7 nAChR inhibition of ACh-evoked currents (antagonist test), two-electrode voltage-clamp electrophysiology in Xenopus oocytes
- Type: cell-based
- settings: 100 µM compound co-applied with 30 µM ACh; -60 mV; read-out: α7 nAChR %Inhibition
Would you kindly list inhibition at 100 µM for each of these molecules?
Kindly format the answer as number then unit.

O[C@@H]1c2ccc(-c3cccnc3)cc2OC[C@H]1N1CCCC1 [Compound 9] :: 66.7%
c1cc(-c2ccc(-c3ccc(CN4CCCC4)cn3)cc2)n[nH]1 [Compound 8] :: 59%
O=C(Nc1cccc(CN2CCCCC2)c1)c1ccccc1F [Compound 10] :: 85%

Items follow; give inhibition at 100 µM for each.
1. Cc1cccc(NC(=O)c2ccc(CN3CCCCCC3)cc2)c1C [Compound 13]
2. C[C@H]1CCCN(Cc2ccc(NC(=O)CCc3ccc(C#N)cc3)cc2)C1 [Compound 20]

["68%", "94.3%"]

====

- measurement.target: human recombinant AChE (Homo sapiens)
- Construct: purchased Sigma-Aldrich Co. LLC C1682
- test.name: biochemical
- settings: 200 µM, compound soluble in MeOH
assay.readout: inhibition at 200 µM

CN(C)Cc1ccc(-c2ccc(N(C)C)nc2)nc1 :: 76.1%
Cc1cc(F)ccc1S(=O)(=O)NCc1ccc(CN2CCCC2)cc1 :: 100%
Cc1cccc(NC(=O)c2ccc(CN3CCCCCC3)cc2)c1C :: 82.5%
CC(=O)c1cccc(NC(=O)c2ccc(CN3CCCCC3)cc2)c1 :: 100%
O=C(Nc1nc(CN2CCCCC2)cs1)c1cc(O)nc2ccccc12 :: 87.7%

inhibition at 200 µM in this record for "CC(=O)c1cccc(NC(=O)c2ccc(CN3CCCCCC3)cc2)c1" : 91.6%

====

- measurement.target: human α7 nAChR (Homo sapiens, UniProt P36544)
- Construct: expressed in transfected cells; host or cells: Xenopus laevis oocytes (cRNA injection)
- test.name: α7 nAChR inhibition of ACh-evoked currents (antagonist test), two-electrode voltage-clamp electrophysiology in Xenopus oocytes
- Assay type: cell-based
- settings: 100 µM compound co-applied with 30 µM ACh; -60 mV; read-out: α7 nAChR %Inhibition
assay.readout: inhibition at 100 µM (%)
One number for each entry, in %.

CC(=O)c1cccc(NC(=O)c2ccc(CN3CCCCCC3)cc2)c1 :: 68.7
CC(=O)c1cccc(NC(=O)c2ccc(CN3CCCCC3)cc2)c1 :: 60
O=C(Nc1cccc(CN2CCCC2)c1)C1=Cc2cc(Cl)ccc2OC1 :: 90.7
O=C(Nc1ccc(CN2CCCCC2)cc1)c1ccc(Cl)cc1 :: 73.3
Cc1cc(F)ccc1S(=O)(=O)NCc1ccc(CN2CCCC2)cc1 :: 96
CN(C)Cc1ccc(-c2ccc(N(C)C)nc2)nc1 :: 47.2

// moving on: another record for inhibition at 100 µM
// field: inhibition at 100 µM; key: "O=c1[nH]c2ccccc2c(=O)n1-c1ccc(CN2CCCC2)cc1" ; value = 81.7
